assay-metric: melting point

melting point recorded for this compound, Clc1ccc(-n2cc(/C=N/Nc3cc(Cl)ccc3Cl)nn2)cc1 , is 181 to 182 °C

Reported melting point ( COc1ccc(-n2cc(/C=N/Nc3ccc(F)cc3)nn2)cc1 ) = 195 to 197 °C

Clc1ccc(Cl)c(N/N=C/c2cn(-c3cc(Cl)ccc3Cl)nn2)c1 has a reported melting point of 200 to 201 °C

Proceed to the following item.
So, COc1ccc(-n2cc(/C=N/Nc3ccc(Br)cc3)nn2)cc1 ? Its melting point was 230 to 231 °C

====

System: P. falciparum PfSR25- (knockout strain for the PfSR25 receptor)
Assay: In vitro growth assay with flow cytometry, PfSR25- knockout strain
Assay type: cell-based, Plasmodium falciparum
Conditions: Plasmodium falciparum, 72 h, read-out: IC50 (dose-response curve, Figure 3B)
assay-metric: IC50
Kindly report the value followed by its unit.

Entry C[C@@H]1CC[C@H]2[C@@H](C)C(=O)O[C@@H]3O[C@@]4(C)CC[C@@H]1[C@]32OO4 [Artemisinin, reference compound] ; IC50 = 5.8 nM

====

System: HEK293 cells
Format: cell-based, human
Conditions: 0.0488–50 µM, 72 h
assay-metric: survival of HEK293 cells (MTT)

Completed entries (count: 4):
The reported value for Fc1ccc(N/N=C/c2cn(-c3ccc(Cl)cc3)nn2)cc1 [Compound 19] in terms of survival of HEK293 cells (MTT) is above 80%

Lab note: measured survival of HEK293 cells (MTT) of ON=Cc1cn(-c2ccc(Cl)cc2)nn1 [Compound 13] was above 80%

Measured survival of HEK293 cells (MTT), O=C(N/N=C/c1cn(-c2cc(Cl)cc(Cl)c2)nn1)c1ccncc1 [Compound 29] : above 80%

Item: COc1ccc(-n2cc(/C=N/Nc3ccccc3)nn2)cc1 [Compound 24] | survival of HEK293 cells (MTT): above 80%

Further cases:
Briefly, survival of HEK293 cells (MTT) measured for CCCCCCCCCC(=O)OCc1cn(-c2ccc(Cl)cc2)nn1 [Compound 9] : above 80%

Reference source for all entries: paper PMC7465636
